target: GRIP2_5, Q9C0E4; experiment: holdup assay; parameters: key: below the threshold = too weak to quantify, mostly under pKd 3.1 to 4; settings: plain residues with an end cap or a label only (N-terminal biotin on a linker: ttds)
Sequence (Q9C0E4 544-642): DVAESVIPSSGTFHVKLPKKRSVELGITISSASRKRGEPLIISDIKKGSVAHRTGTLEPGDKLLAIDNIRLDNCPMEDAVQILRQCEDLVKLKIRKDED
quantity name: pKd

Illustrative cases are given below, each with its answer.
DPRNTQTSQI [ABRAXAS2, Q15018] : below the threshold
LCALPKVTTV [AGMAT, Q9BSE5] : below the threshold
PKRPFVESNV [TANC2, Q9HCD6] : below the threshold
VNKVWDQSSV [CIT, O14578] : below the threshold
RTRQRNETQV [HPV51-E6, P26554] : below the threshold

Asked: Name the recorded pKd for QFQYAKESYI [TAGAP, Q8N103] .
Given back: below the threshold

Asked: Name the recorded pKd for DPLTPSRSQL [DGKK, Q5KSL6] .
Given back: below the threshold

Asked: Name the recorded pKd for LDSQIQETSI [MAP4, P27816] .
Given back: below the threshold

Asked: Name the recorded pKd for SEKHFRETEV [HTLV1-TAX1, P03409] .
Given back: below the threshold

Where do the numbers come from? From paper PMC9482650.
